Sourced from patent US11649460B2

- System: A-375 human malignant melanoma
- runDescription: SRB cell proliferation (cytotoxicity) assay, A-375
- assayContext: read-out: LC50: Concentration for 50% cell death; A-375
Consider the following molecules; for each one, report its CC50.
# unit: µM | format: bare number

What CC50 value was documented for this molecule, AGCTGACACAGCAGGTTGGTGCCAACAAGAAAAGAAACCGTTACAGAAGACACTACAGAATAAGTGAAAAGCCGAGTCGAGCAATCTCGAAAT (nucleic acid, chemistry not given here) DNA: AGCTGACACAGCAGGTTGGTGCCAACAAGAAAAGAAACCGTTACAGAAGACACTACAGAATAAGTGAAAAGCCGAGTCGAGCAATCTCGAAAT ?
93.1

What CC50 value was documented for this molecule, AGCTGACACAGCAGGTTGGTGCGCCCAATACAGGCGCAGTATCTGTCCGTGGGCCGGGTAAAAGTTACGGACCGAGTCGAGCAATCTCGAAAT (nucleic acid, chemistry not given here) DNA: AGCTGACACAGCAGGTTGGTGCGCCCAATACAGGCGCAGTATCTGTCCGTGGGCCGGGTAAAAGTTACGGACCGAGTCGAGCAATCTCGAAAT ?
51.5

What CC50 value was documented for this molecule, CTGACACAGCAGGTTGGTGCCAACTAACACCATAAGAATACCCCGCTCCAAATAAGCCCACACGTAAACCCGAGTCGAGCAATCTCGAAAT (nucleic acid, chemistry not given here, DNA aptamer that recognizes human galectin-1) DNA: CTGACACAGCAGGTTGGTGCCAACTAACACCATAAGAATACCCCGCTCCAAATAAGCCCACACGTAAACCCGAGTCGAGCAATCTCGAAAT ?
41.1
